In this section, each of the binders is paired with its reported EC50.
Biological target: T1, Mutant Human HTT Exon 1 48Q (GST) (human)
T1 construct: recombinant His- and GST-tagged fusion; also called HTT Exon 1 Q48; 48Q HTT Exon-1
T1 sequence (chain, as listed by the source mutant limits assumed): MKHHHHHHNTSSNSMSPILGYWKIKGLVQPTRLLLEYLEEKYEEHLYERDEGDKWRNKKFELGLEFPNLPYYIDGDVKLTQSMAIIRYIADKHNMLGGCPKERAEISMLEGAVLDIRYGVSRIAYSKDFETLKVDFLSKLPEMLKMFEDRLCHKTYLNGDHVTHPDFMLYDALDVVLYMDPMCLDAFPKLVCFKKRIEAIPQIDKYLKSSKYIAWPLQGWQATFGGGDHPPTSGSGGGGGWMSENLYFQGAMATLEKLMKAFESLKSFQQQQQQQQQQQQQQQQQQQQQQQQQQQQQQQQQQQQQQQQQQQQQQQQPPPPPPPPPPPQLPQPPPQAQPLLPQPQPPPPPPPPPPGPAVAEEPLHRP
Assay: HTT sandwich ELISA, biological repeat 1

// solved cases for EC50 follow
binder: ATL_0005567 (antibody, V domains shown, human IgG1; also called ATL_5567; ATL5567) VH: EVQLVESGGGLVKPGGSLRLSCAASGFTFNKAWMNWVRQAPGKGLEWVGRIKSGIDGGTTDYAAPVQGRFTISRDDSKNTVYLQMNSLNTEDTAVYYCIPPPYYYYYGLDVWGQGTTVTVSS VL: QSALTQPASVSGSPGQSITISCTGTSSDIGSYNLVSWYQQHPGNAPKPLIYEGSKRPSGVSARFSGSKSGNTASLTISGLQPEDEADYYCSSYAGFSTLVFGGGTKVTVL
EC50: 8.7 nM
--
binder: ATL_0005895 (antibody, V domains shown, human IgG1; also called ATL_5895; ATL5895) VH: EVQLVESGGGLVKPGGSLRLSCAASGFTFNKAWMSWVRQAPGKGLEWVGRIKSGIDAGTTDYAAPVKGRFTISRDDSKNTLYLQMNSLKTEDTAVYYCIPPPYYYYYGLDVWGQGTTVTVSS VL: QSALTQPRSVSGSPGQSVTISCTGTSSDVGSYNLVSWYQQHPGKAPKLMIYEVNKRPSGVPDRFSGSKSGATASLTISGLQAEDEADYYCGSYAGTANVFGTGTKVTVL
EC50: 0.731 nM
--
binder: ATL_0005901 (antibody, V domains shown, human IgG1; also called ATL_5901; ATL5901) VH: EVQLVESGGGLVKPGGSLRLSCAASGFTFNKAWMSWVRQAPGKGLEWVGRIKSGIDAGTTDYAAPVKGRFTISRDDSKATLYLQMNSLKTEDTAVYYCIPPPYYYYYGLDVWGQGTTVTVSS VL: QSALTQPASVSGSPGQSITISCTGTSSDVGGYKLVSWYQQHPGRAPKLMIYEVSKRPSGVSSRFSGSKSGSTASLTISGLQAEDEADYYCSSYAGSSVVFGGGTKLTVL
EC50: 1.25 nM

EC50 measured on ATL_0005059/NI-302.8F1 (antibody, V domains shown, also called ATL_5059; CA_0000274) VH: EVQLVESGGGLVKPGGSLTISCAASGFTFSNAWMNWVRQAPGKGLEWVGHIRTQAEGGTSDYAAPVKGRFTISRDDSKNTLYLQMNSLKTEDTAVYYCIPPPYYYYYGLDVWGQGTTVTVSS VL: QSALTQPASVSGSPGQSITISCTGASSDVGTYDLVSWYQQHPGKAPKLIIYEVNKRPSGVSYRFSASKSANTASLTISGLQAEDEAEYYCCSYAGYSTVFGGGTKLTVL = 18.1 nM
